The values you see were collected from the supplement of paper PMC9112550.

- Test system: Escherichia coli TOP10;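 also: peptides expressed intracellularly from a pBAD plasmid library in pooled LB shake-flask culture, induced with 0.3% L-arabinose, DNA abundance read by NGS, three biological replicates, DESeq2 with apeglm shrinkage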
- testMethodNotes: shrunken log2 fold change of peptide-encoding DNA abundance (4.5 h post-induction vs induction); higher = less antimicrobial activity (less host growth inhibition)
- experimentalConditions: time post-induction: 4.5 h; library: site-saturation at positions 5, 18, 19, 20
# shrunken log2 fold change binned as lower level (below -0.1), middle level (-0.1 to below 0.09), upper level (0.09 or more)

Before answering, review these 5 worked examples.
INSERT INTO assay_data (orderedresidues, categorylabel) VALUES
  ('RRIRIRPPRLPRPRPRPWRSPRP', 'middle level'),
  ('RRIRNRPPRLPRPRPRPASIPRP', 'middle level'),
  ('RRIRIRPPRLPRPRPRPPGAPRP', 'upper level'),
  ('RRIRPRPPRLPRPRPRPGGLPRP', 'upper level'),
  ('RRIRDRPPRLPRPRPRPFDEPRP', 'middle level');

Exercise: Band assignment needed for "RRIRFRPPRLPRPRPRPDVFPRP" please.
Solution: lower level

Exercise: Bin? "RRIRTRPPRLPRPRPRPKYEPRP"
Solution: lower level

Exercise: Which class holds "RRIRMRPPRLPRPRPRPNHKPRP" ?
Solution: lower level

Exercise: Please let me know in which category the item "RRIRNRPPRLPRPRPRPQAYPRP" belongs.
Solution: lower level

Exercise: Just checking, what class would you give "RRIRLRPPRLPRPRPRPEPPPRP" here?
Solution: upper level

Exercise: Which shrunken log2 fold change category applies to "RRIRERPPRLPRPRPRPDQCPRP" here?
Solution: lower level

Exercise: Textbook exercise: identify the category of the sequence given here, "RRIRHRPPRLPRPRPRPSEKPRP" , according to its measured value.
Solution: lower level

Exercise: Hello team, could you let me know which band the following sequence falls into: "RRIRTRPPRLPRPRPRPVALPRP"
Solution: upper level

Exercise: Class label required: "RRIRMRPPRLPRPRPRPGTTPRP"
Solution: upper level

Exercise: Please indicate the class for "RRIRSRPPRLPRPRPRPCHWPRP" based on its shrunken log2 fold change.
Solution: middle level
